Numbers sourced from paper PMC9783227.

assay text: in vitro
condition context: rat
Strictly below 100 µM in IC50 at 72 h: Y. Otherwise: N.

INSERT INTO measurements (record_smiles, assigned_class) VALUES
  ('CC(C)(C)OC(=O)N1CCN(c2ccccc2NC(=O)c2cccc(C(F)(F)F)c2Nc2ccc(F)cc2)CC1', 'N'),
  ('CC(C)(C)C(=O)N1CCN(c2ccc(NC(=O)c3cccc([N+](=O)[O-])c3Oc3ccc(F)cc3)cc2)CC1', 'N'),
  ('CC(C)(C)C(=O)N1CCN(c2ccc(NC(=O)c3ccccc3Oc3ccc(F)cc3)cc2)CC1', 'N'),
  ('CC(C)(C)OC(=O)N1CCN(c2ccc(NC(=O)c3cccc(C(F)(F)F)c3Nc3ccc(F)cc3)cc2)CC1', 'Y'),
  ('CC(C)(C)OC(=O)N1CCN(c2ccc(NC(=O)c3cccc(N)c3Oc3ccc(F)cc3)cc2)CC1', 'N'),
  ('CC(C)(C)OC(=O)N1CCN(c2ccccc2NC(=O)c2ccccc2Oc2ccc(F)cc2)CC1', 'N'),
  ('CC(C)(C)C(=O)N1CCN(c2ccccc2NC(=O)c2ccccc2Oc2ccc(F)cc2)CC1', 'Y'),
  ('CC(C)(C)C(=O)N1CCN(c2ccccc2NC(=O)c2cccc([N+](=O)[O-])c2Oc2ccc(F)cc2)CC1', 'N'),
  ('CC(C)(C)OC(=O)N1CCN(c2ccc(NC(=O)c3cccc(F)c3Oc3ccc(F)cc3)cc2)CC1', 'Y'),
  ('CC(C)(C)OC(=O)N1CCN(c2ccccc2NC(=O)c2cccc(C(F)(F)F)c2Sc2ccc(F)cc2)CC1', 'N'),
  ('CC(C)(C)C(=O)N1CCN(c2ccc(NC(=O)c3cccc(F)c3Oc3ccc(F)cc3)cc2)CC1', 'N'),
  ('CC(C)(C)OC(=O)N1CCN(c2ccc(NC(=O)c3ccccc3Oc3ccc(F)cc3)cc2)CC1', 'N'),
  ('CC(C)(C)C(=O)N1CCN(c2ccccc2NC(=O)c2cccc(F)c2Oc2ccc(F)cc2)CC1', 'Y'),
  ('CC(C)(C)OC(=O)N1CCN(c2ccc(NC(=O)c3cccc(C(F)(F)F)c3Sc3ccc(F)cc3)cc2)CC1', 'Y'),
  ('CC(C)(C)OC(=O)N1CCN(c2ccccc2NC(=O)c2cccc([N+](=O)[O-])c2Oc2ccc(F)cc2)CC1', 'Y');
